// data source = ChEMBL document CHEMBL3433997

target: Hexose transporter 1 (Plasmodium falciparum); test: ST_JUDE_LEISH: Cytotoxicity at 2uM final concentration against transgenic Leishmania Mexicana promastigotes LmPfHT that are glucose transport deficient and complemented with the Plasmodium falciparum hexose transporter. Activity is measured by DNA content using SYBR green in vitro; type: functional
Give measured inhibition for each item. Keep answers brief.
Numbers only, in %.

Record excerpt, results attached:
Task: Could you share what inhibition was measured for Clc1ccccc1CCNCC1CCN(CC2CCCCC2)CC1 , tested on Hexose transporter 1 (Plasmodium falciparum)?
Result: 5.3

Task: Could you share what inhibition was measured for Cc1ccccc1C(=O)Nc1cccc(-c2nc3ncccn3c2C)c1 , tested on Hexose transporter 1 (Plasmodium falciparum)?
Result: 3.11

Task: Could you share what inhibition was measured for NS(=O)(=O)c1cccc(N/C=C2\C(=O)Nc3ccc(S(=O)(=O)Cc4c(Cl)cccc4Cl)cc32)c1 , tested on Hexose transporter 1 (Plasmodium falciparum)?
Result: 0.57

Task: Could you share what inhibition was measured for CCc1c(CCNCCCCCCNCCc2ccc([N+](=O)[O-])cc2)ccc(OC)c1OC , tested on Hexose transporter 1 (Plasmodium falciparum)?
Result: 10.1

Task: Could you share what inhibition was measured for Cc1ccccc1OCCCN1CCN(CC(c2ccc(F)cc2)N2CCN(C(C)C)CC2)CC1 (centres undefined) , tested on Hexose transporter 1 (Plasmodium falciparum)?
Result: 12.5

Task: Could you share what inhibition was measured for COc1cc2c(c(OC)c1[N+](=O)[O-])C=CC1(O2)N(C)c2ccc([N+](=O)[O-])cc2C1(C)C (centres undefined) , tested on Hexose transporter 1 (Plasmodium falciparum)?
Result: 0.99

For each of the molecules below, note its inhibition.
1. O=S(=O)(Nc1cccc(CCN2CCC(N3CCCCC3)CC2)c1)c1ccc(Cl)cc1
2. O=C(NCCN1CCCC1)c1cccc(-c2ccc(-c3nc4ccccc4[nH]3)cc2)c1
3. NC1=NC2(CCCCC2)N(OCCCCCCCCNc2nc(N)nc(N)n2)C(N)=N1
4. CN(C)CCNC(=O)c1ccc2c(c1)n(C1CCN(S(=O)(=O)c3ccc(-c4ccccc4)cc3)CC1)c(=O)n2CC1CCCCC1
5. CC(C)C1C(O)=C(c2ccc3ccccc3c2)C(=O)N1CC1CCCCC1 (centres undefined)
6. OC1CCCN(Cc2ccc(-c3cccc(-c4nc5cc(F)ccc5[nH]4)c3)cc2)C1 (centres undefined)
7. CN1CCC(c2csc3ccc(NC(=O)Nc4ccc(-c5ccncc5)c5ccccc45)cc23)CC1

Result:
[1.72, 5.32, 5.05, -0.94, 1.04, 7.1, 0.65]

For each of the molecules below, note its inhibition.
1. O=c1cc(NCCCNCc2ccc(C(F)(F)F)c(F)c2)[nH]c2ccccc12
2. CN(C)CCCNc1nccc(N(C)c2ccc(NC(=O)Nc3cc(C(F)(F)F)ccc3F)cc2)n1
3. COC(=O)c1sc2ccccc2c1NC(=O)c1ccc(C)c(C)c1
4. CC(c1cccc(Nc2nccc(-c3c(-c4cccc(NC(=O)c5c(F)cccc5F)c4)nn4ncccc34)n2)c1)S(C)(=O)=O (centres undefined)
5. CCN(c1ccccc1)S(=O)(=O)c1ccc(NC(=O)c2cc(-c3cc(C)ccc3O)n[nH]2)cc1

Result:
1: 0.58; 2: -0.78; 3: 4.87; 4: 1.6; 5: 5.38

Task: Could you share what inhibition was measured for O=C(Nc1ccc2c(c1)OCO2)NC1CCN(c2ccnc(NCc3ccc(F)cc3)n2)CC1 , tested on Hexose transporter 1 (Plasmodium falciparum)?
Result: 2.3
